// data source = patent US20250019437A1

Exercise: state measured Binding Signal (fold over 6E7 parental antibody) for each of the binders provided.
Measured Target: T1, human TREM2 (triggering receptor expressed on myeloid cells 2) (human) (UniProt Q9NZC2)
T1 sequence (looked up): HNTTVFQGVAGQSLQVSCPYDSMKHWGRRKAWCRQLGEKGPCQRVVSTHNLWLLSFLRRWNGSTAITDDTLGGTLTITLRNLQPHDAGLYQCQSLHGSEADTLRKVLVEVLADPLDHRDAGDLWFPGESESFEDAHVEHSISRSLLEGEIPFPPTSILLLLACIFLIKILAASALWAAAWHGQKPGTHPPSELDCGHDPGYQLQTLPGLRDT
Assay Details: 2nd screen, 10 nM Ab
Record the result as number plus unit.

6E7 antibody affinity modulation variant V4 (antibody, V domains shown) VH: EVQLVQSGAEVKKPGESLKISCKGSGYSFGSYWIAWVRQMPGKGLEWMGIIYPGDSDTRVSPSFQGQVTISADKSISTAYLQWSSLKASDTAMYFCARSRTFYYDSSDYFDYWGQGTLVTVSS VL: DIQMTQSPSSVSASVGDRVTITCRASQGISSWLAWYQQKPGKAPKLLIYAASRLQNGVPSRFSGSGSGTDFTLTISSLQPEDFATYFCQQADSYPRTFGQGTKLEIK	5.51 fold

Answer for every listed entry: what is its Binding Signal (fold over 6E7 parental antibody)? The entries follow.
1. 6E7 antibody affinity modulation variant V74 (antibody, V domains shown) VH: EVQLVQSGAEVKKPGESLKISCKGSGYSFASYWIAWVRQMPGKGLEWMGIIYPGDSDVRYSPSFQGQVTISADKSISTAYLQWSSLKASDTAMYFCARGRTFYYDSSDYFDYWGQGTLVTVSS VL: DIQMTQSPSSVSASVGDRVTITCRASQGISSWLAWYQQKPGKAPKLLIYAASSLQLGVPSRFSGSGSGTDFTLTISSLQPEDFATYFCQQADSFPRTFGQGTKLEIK
2. 6E7 antibody affinity modulation variant V14 (antibody, V domains shown) VH: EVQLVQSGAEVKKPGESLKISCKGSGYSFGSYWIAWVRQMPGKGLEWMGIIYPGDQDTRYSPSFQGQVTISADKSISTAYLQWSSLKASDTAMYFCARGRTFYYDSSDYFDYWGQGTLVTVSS VL: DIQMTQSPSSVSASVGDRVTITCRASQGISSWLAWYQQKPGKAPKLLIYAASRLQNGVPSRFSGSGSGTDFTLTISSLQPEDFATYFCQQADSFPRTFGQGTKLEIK
3. 6E7 antibody affinity modulation variant V15 (antibody, V domains shown) VH: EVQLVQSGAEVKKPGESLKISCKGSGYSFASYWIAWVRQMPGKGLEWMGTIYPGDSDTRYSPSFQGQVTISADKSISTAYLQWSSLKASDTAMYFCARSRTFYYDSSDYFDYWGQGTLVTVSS VL: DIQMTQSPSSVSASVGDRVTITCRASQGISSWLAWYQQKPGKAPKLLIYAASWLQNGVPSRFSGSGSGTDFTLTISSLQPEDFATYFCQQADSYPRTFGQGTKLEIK
4. 6E7 antibody affinity modulation variant V77 (antibody, V domains shown) VH: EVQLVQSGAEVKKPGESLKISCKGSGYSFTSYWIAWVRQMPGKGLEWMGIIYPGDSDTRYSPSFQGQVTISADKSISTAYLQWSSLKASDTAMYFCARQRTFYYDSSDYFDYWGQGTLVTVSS VL: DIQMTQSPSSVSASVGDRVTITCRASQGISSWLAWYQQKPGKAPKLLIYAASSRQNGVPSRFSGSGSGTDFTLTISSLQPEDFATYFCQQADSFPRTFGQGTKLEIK
5. 6E7 antibody affinity modulation variant V87 (antibody, V domains shown) VH: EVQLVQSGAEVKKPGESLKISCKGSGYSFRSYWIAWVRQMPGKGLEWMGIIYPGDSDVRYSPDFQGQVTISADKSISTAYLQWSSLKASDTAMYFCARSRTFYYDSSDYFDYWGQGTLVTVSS VL: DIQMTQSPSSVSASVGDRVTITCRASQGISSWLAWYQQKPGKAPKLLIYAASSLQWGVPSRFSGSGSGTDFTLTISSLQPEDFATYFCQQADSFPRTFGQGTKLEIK

Response given:
1: 4.01 fold; 2: 4.64 fold; 3: 4.78 fold; 4: 1.38 fold; 5: 3.93 fold

Quick request: Binding Signal (fold over 6E7 parental antibody) for each listed item, please.
1. 6E7 antibody affinity modulation variant V36 (antibody, V domains shown) VH: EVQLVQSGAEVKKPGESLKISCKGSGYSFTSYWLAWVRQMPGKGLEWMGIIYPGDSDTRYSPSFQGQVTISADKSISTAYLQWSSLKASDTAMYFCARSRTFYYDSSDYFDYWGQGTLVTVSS VL: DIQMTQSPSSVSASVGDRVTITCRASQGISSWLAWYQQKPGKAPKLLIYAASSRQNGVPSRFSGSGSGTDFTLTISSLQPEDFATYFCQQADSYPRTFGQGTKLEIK
2. 6E7 antibody affinity modulation variant V48 (antibody, V domains shown) VH: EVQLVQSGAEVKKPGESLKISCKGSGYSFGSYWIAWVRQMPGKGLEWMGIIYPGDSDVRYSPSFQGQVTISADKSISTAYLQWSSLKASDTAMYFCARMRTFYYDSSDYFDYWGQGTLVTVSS VL: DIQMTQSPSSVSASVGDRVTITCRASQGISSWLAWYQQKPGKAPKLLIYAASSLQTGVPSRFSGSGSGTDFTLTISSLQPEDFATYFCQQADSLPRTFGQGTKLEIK
3. 6E7 antibody affinity modulation variant V88 (antibody, V domains shown) VH: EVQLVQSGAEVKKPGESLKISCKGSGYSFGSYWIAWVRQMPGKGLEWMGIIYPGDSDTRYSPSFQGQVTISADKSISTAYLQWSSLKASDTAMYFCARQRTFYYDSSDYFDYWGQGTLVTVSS VL: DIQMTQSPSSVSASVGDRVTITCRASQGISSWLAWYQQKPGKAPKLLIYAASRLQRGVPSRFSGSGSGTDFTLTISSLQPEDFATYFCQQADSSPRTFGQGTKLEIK
4. 6E7 antibody affinity modulation variant V28 (antibody, V domains shown) VH: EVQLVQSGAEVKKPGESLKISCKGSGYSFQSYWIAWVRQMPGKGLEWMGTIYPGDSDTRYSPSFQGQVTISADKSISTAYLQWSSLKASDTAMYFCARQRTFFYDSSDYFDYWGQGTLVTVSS VL: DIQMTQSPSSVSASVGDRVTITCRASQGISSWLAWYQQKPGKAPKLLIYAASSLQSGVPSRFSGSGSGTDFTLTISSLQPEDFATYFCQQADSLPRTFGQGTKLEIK

Response given:
3.44 fold
2.54 fold
5.3 fold
3.61 fold
